Cited source: ChEMBL document CHEMBL4732061

Quick reference: log10 Ki of the listed items.
# Tested On: Sigma intracellular receptor 2 (Rattus norvegicus)
# Sequence (Q5U3Y7 whole entry): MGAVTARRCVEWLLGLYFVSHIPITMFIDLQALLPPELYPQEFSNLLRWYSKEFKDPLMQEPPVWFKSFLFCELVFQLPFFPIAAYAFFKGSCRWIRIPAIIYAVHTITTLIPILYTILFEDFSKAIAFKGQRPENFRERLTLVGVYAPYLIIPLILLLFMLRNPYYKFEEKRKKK
# Protocol Notes: Displacement of [125I]-RHM-4 from sigma 2 receptor in rat liver membranes after 120 mins by microbeta scintillation counting method
Observable: log10 Ki (log10 of the value in nM)

> print(dat)
                               smiles.string  assay.result
 1  COc1cc2c(cc1OC)CN(CCCCCCC(=O)c1c(C)c(OC)c(OC)c(OC)c1OC)CC2          0.12
 2  COc1cc2c(cc1OC)CN(CCC(=O)c1c(C)c(OC)c(OC)c(OC)c1OC)CC2          2.98
 3  COc1cc2c(cc1OC)CN(CCCCCC(=O)c1c(C)c(OC)c(OC)c(OC)c1OC)CC2         -0.42
 4  COc1cc2c(c(OC)c1OC)CCN(CCC(=O)c1c(C)c(OC)c(OC)c(OC)c1OC)C2          4.06
 5  COc1cc2c(c(OC)c1OC)CCN(CCCCCC(=O)c1c(C)c(OC)c(OC)c(OC)c1OC)C2          1.29
 6  COc1cc2c(cc1OC)CN(CCCC(=O)c1c(C)c(OC)c(OC)c(OC)c1OC)CC2          0.71
 7  COc1cc2c(c(OC)c1OC)CCN(CCCC(=O)c1c(C)c(OC)c(OC)c(OC)c1OC)C2          1.62
 8  COc1cc2c(c(OC)c1OC)CN(CCC(=O)c1c(C)c(OC)c(OC)c(OC)c1OC)CC2          3.50
 9  COc1cc2c(c(OC)c1OC)CCN(CCCCCCC(=O)c1c(C)c(OC)c(OC)c(OC)c1OC)C2          1.60
10  COc1cc2c(c(OC)c1OC)CN(CCCCC(=O)c1c(C)c(OC)c(OC)c(OC)c1OC)CC2          1.35
11  COc1cc2c(cc1OC)CN(CCCCC(=O)c1c(C)c(OC)c(OC)c(OC)c1OC)CC2          0.48
12  COc1cc2c(c(OC)c1OC)CN(CCCCCC(=O)c1c(C)c(OC)c(OC)c(OC)c1OC)CC2          1.10
13  COc1cc2c(c(OC)c1OC)CCN(CCCCC(=O)c1c(C)c(OC)c(OC)c(OC)c1OC)C2          1.53
